From: patent US7329737

Biological target: T1, hK1 (human tissue kallikrein 1), recombinant (human, UniProt P06870 25-262)
T1 construct: Expressed in P. pastoris from KLK1 cDNA and purified; enzymatically active; also called KLK1; Recombinant (Pichia) Kallikrein
Assay: SPR
Measure: koff (s⁻¹)
Answers are plain numbers, in s⁻¹.

Previously resolved entries follow.
M0102-C12 (Fab, V domains shown) VH: EVQLLESGGGLVQPGGSLRLSCAASGFTFSHYLMGWVRQAPGKGLEWVSVIWPSGGITKYADSVKGRFTISRDNSKNTLYLQMNSLRAEDTAVYYCARGNGGFDSWGQGTLVTVSS VL: DIQMTQSPSSLSASVGDRVTITCRASQGISNYLAWYQQKPGKVPKLLIYAASTLQSGVPSRFSGSGSGTDFTLTISSLQPEDVATYYCQKYNSAPWTFGQGTKVEIKR: 2.62
M0108-E11 (Fab, V domains shown) VH: EVQLLESGGGLVQPGGSLRLSCAASGFTFSNYSMMWVRQAPGKGLEWVSSIYPSGGFTKYADSVKGRFTISRDNSKNTLYLQMNSLRAEDTAVYYCARVGFYGGFVWGQGTTVTVSS VL: AQYELTQPASVSGSPGQSITISCTATSSDLGSYNFVSWYQQHPDKAPKLMIFEVSRRPSGVSNRFSGSKSGNTASLTISGLQAEDEADYYCCSYAGSNTYVFGTGTKVTVLG: 0.00355
M0136-D07 (Fab, V domains shown) VH: EVQLLESGGGLVQPGGSLRLSCAASGFTFSPYKMGWVRQAPGKGLEWVSSIYPSGGVTTYADSVKGRFTISRDNSKNTLYLQMNSLRAEDTAVYYCTKNINLRYDILTGYFDIWGQGTTVTVSS VL: DIQMTQSPSSVSASVGDRVTITCRASQDIASWLAWYQQKPEKVPKLLIYAASSLQSGVPSRFSGSGSGTDFTLTINSLQPEDFATYYCQQANSFPFTFGPGTKVDFKR: 0.000397

Please go through the list and note koff for each binder.
1. M0131-D12 (Fab, V domains shown) VH: EVQLLESGGGLVQPGGSLRLSCAASGFTFSWYNMYWVRQAPGKGLEWVSYIVPSGGATHYADSVKGRFTISRDNSKNTLYLQMNSLRAEDTAVYYCARALRGYSYGPRGYYYYGMDVWGQGTTVTVSS VL: AQSALTQPPSVSVAPGQTASISCSGNILDNSYASWFQQKPGQSPVMVIHRDNKRPSGIPERFSGSTSGNTATLTISGTQAVDEADYYCQAWDRTTGVFGTGTRLTVLR
2. M0115-F08 (Fab, V domains shown) VH: EVQLLESGGGLVQPGGSLRLSCAASGFTFSHYVMVWVRQAPGKGLEWVSSIYPSGGMTVYADSVKGRFTISRDNSKNTLYLQMNSLRAEDTAVYYCARRGIANSFNIWGQGTMVTVSS VL: AQSELTQPASVSGSPGQSITISCTGTSSDVGGYNYVSWYQQHPGKAPKLMIYEVSNRPSGVSNRFSGSKSGNTASLTISGLQAEDEADYYCSSYTSSSTWVFGGGTKLTVLG

Response given:
1. 0.00193
2. 0.0158
